assay-name: E. coli acrAB mutant growth effects, primary screen, E. coli filamentation inducers, strain DRC39, OD650, 24 h (AID 1178);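 note: growth measured as culture turbidity by optical density at 650 nm; test concentration not given here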
study-conditions: higher = more signal, called active from +8 up or from −8 down

molecule	z-score
O=C1O[C@H](c2ccccc2)[C@H](c2ccccc2)N2[C@H]1[C@@H](C(=O)Nc1nc3ccccc3s1)[C@]1(C(=O)Nc3ccccc31)[C@H]2c1ccc(OCCO)cc1	-0.476
CC[C@H]1C2=C3C(CC[C@H]4C(OCc5ccc(F)cc5C(F)(F)F)OC[C@](C)([C@@H]34)N(C(=O)OC(C)(C)C)C2)C(COC)C1COC (some centres undefined)	-0.543
C[C@@H]1NC(=O)[C@@]23C(=O)N[C@@H](Cc4ccccc4)C2[C@H](C)[C@@]2(C)O[C@H]2C3/C=C/C/C=C\CNC(=O)[C@@H]2CCCN2C1=O (some centres undefined)	-0.4
COc1cccc(/C=C/C=O)c1	0.635

----------
assay-name: inhibitors of hydroxyurea-induced Chk1 phosphorylation, primary screen, imaging, HeLa, phospho-Chk1 antibody, percent positive cells (AID 1186)
study-conditions: hydroxyurea-induced phospho-Chk1 immunofluorescence imaging, higher = more signal
yes (1) means recorded z-score is 0.04 or above; no (0) means it is below 0.04.

mol-smiles	label-class
COC(=O)[C@H](Cc1ccccc1)N1CC(/C=C/C2CC2)=C[C@H]1[C@H](O)Cc1ccccc1	no (0)
CC(C)(C)OC(=O)CC[C@]1(C(=O)NCc2ccccc2)N=C(c2ccc(OCCCO)cc2)O[C@H]1c1ccccc1CN=[N+]=[N-]	no (0)
COC(=O)[C@@]1(Cc2ccc(OC)cc2)[C@H]2c3cc(C(=O)N(C)C)n(C[C@H](O)CO)c3C[C@H]2CN1C(=O)c1ccccc1	yes (1)
NC(N)=NCCCn1cc(CNC(=O)[C@@H](N)Cc2ccccc2)nn1	yes (1)
CN(C)CCCNC(=O)[C@@H]1c2ccccc2C(=O)N(Cc2ccccc2Cl)[C@H]1c1ccc(CO)cc1	no (0)
COCCOC(=O)N1C(=O)[C@@]2(c3cc(C#Cc4ccc(OC)cc4)ccc31)[C@H](c1ccccc1OCCO)N1[C@H](c3ccccc3)[C@H](c3ccccc3)OC(=O)[C@H]1[C@@H]2C(=O)N1CCCCCCC1	no (0)
COCCCNC(=O)[C@@]1(Cc2ccccc2CN=[N+]=[N-])N=C(c2ccc(OCCCO)cc2)O[C@H]1c1ccccc1	no (0)

----------
assay-name: E. coli DRC41 culture turbidity changes, primary screen, E. coli filamentation inducer project, strain DRC41, OD650, 48 h (AID 1152);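 note: E. coli MC1000 strain DRC41 lacking acrAB efflux pump and sulA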
study-conditions: E. coli DRC41 (acrAB sulA), higher = more signal, called active from +8 up or from −8 down
Active and inactive are the calls of the source.
# z-score annotations
measured-attribute: z-score

> print(dat)
                                   compound    value.measured
1  CN(C)c1ccc(C(O)C2C=CC3C(=O)N(c4ccccc4)C(=O)C3N2Nc2ccc([N+](=O)[O-])cc2)cc1 (centres undefined)  -1.16 (inactive)
2  COC(=O)Cn1c(C(=O)N(C)C)cc2c1C[C@H]1CN(C(=O)c3ccccc3)[C@@](Cc3ccc(F)cc3)(C(=O)OC)[C@@H]21  -1.25 (inactive)
3  [N-]=[N+]=NCc1ccccc1C[C@]1(C(N)=O)N=C(c2ccc(OCCCO)cc2)O[C@H]1c1ccccc1   1.06 (inactive)
4  C=C[C@@H](COC(C)=O)N(C(=O)OC(C)(C)C)S(=O)(=O)c1ccc(Br)cc1  0.336 (inactive)
